Data origin: ChEMBL document CHEMBL1926595

Molecular target: Epidermal growth factor receptor (Homo sapiens)
Sequence (P00533 whole entry): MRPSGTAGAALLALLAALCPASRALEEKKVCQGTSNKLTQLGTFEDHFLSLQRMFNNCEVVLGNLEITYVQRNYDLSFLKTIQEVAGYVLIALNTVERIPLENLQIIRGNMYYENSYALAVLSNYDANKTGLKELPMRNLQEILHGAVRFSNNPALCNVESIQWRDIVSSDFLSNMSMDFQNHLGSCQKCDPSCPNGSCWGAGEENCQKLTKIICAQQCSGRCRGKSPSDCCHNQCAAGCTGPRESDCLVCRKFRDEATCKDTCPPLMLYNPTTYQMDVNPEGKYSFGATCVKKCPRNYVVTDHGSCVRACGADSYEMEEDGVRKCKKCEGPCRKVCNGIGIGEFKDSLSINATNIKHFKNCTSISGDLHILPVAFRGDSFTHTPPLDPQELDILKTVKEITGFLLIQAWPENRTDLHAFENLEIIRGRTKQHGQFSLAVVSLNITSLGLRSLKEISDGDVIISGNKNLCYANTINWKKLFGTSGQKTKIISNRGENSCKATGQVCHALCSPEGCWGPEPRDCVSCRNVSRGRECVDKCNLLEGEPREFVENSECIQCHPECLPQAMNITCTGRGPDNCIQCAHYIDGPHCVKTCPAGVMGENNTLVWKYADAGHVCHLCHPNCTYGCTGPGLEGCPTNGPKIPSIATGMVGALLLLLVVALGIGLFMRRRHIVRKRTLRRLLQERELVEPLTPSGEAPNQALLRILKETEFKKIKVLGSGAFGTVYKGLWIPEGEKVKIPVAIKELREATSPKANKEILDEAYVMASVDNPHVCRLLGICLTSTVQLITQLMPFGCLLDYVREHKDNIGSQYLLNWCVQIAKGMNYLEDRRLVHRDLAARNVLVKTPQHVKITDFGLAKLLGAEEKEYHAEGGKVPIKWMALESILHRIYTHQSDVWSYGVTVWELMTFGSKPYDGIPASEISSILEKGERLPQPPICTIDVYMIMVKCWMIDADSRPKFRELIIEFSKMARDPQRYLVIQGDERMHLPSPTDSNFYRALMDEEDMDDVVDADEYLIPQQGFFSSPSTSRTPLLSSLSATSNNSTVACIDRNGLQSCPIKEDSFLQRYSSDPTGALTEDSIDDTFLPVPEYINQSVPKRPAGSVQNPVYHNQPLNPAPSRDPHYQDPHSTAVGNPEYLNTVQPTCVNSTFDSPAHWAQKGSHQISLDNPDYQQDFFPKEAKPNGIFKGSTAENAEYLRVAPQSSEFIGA
Assay: Inhibition of EGFR expressed in baculovirus infected Sf9 cells assessed as inhibition of autophosphorylation preincubated for 10 mins measured after 1 hr by DELFIA/Time-Resolved Fluorometry
Catalogue of IC50 readings, one per entry.
Reply with just the number (in µM).

COc1ccccc1CNc1ccc2ncnc(Nc3cccc(Cl)c3)c2c1 : 13.9
Oc1ccc(CNc2ccc3ncnc(Nc4cccc(Cl)c4)c3c2)cc1 : 1.87
Oc1ccccc1CNc1ccc2ncnc(Nc3cccc(Cl)c3)c2c1 : 3.54

Entry under test: "Brc1ccc(CNc2ccc3ncnc(Nc4cccc(Br)c4)c3c2)cc1" . Its IC50 was 3.13

Entry under test: "Clc1cccc(Nc2ncnc3ccc(NCc4ccc(Br)cc4)cc23)c1" . Its IC50 was 5.67

Entry under test: "Clc1ccc(CNc2ccc3ncnc(Nc4cccc(Br)c4)c3c2)cc1" . Its IC50 was 1.64

Entry under test: "Clc1ccc(CNc2ccc3ncnc(Nc4cccc(Cl)c4)c3c2)cc1" . Its IC50 was 4.41

Entry under test: "COc1ccccc1CNc1ccc2ncnc(Nc3cccc(Br)c3)c2c1" . Its IC50 was 11.2

Entry under test: "Oc1ccccc1CNc1ccc2ncnc(Nc3cccc(Br)c3)c2c1" . Its IC50 was 3.22

* * *

Catalogue of pIC50 readings, one per entry.
Test system: HepG2
Test: Antiproliferative activity against human HepG2 cells after 48 hrs by MTT assay
Type: functional, cell-based
Conditions: HepG2, 48 h
// pIC50 is dimensionless: -log10 of concentration (M)

Worked examples follow.
Brc1cccc(Nc2ncnc3ccc(NCc4ccccc4Br)cc23)c1 : 5.56
COc1ccccc1CNc1ccc2ncnc(Nc3cccc(Cl)c3)c2c1 : 5.01
Clc1ccccc1CNc1ccc2ncnc(Nc3cccc(Br)c3)c2c1 : 5.74
COc1ccccc1CNc1ccc2ncnc(Nc3cccc(Br)c3)c2c1 : 5.05
Oc1ccccc1CNc1ccc2ncnc(Nc3cccc(Br)c3)c2c1 : 5.90
Fc1ccc(CNc2ccc3ncnc(Nc4cccc(Cl)c4)c3c2)cc1 : 5.57
Clc1cccc(Nc2ncnc3ccc(NCc4ccccc4Cl)cc23)c1 : 5.27
Fc1ccc(CNc2ccc3ncnc(Nc4cccc(Br)c4)c3c2)cc1 : 5.75
COc1ccc(CNc2ccc3ncnc(Nc4cccc(Cl)c4)c3c2)cc1 : 5.28
Clc1cccc(Nc2ncnc3ccc(NCc4ccccc4Br)cc23)c1 : 5.38

Entry under test: "Clc1ccc(CNc2ccc3ncnc(Nc4cccc(Cl)c4)c3c2)cc1" . Its pIC50 was 5.75

Entry under test: "COc1ccc(CNc2ccc3ncnc(Nc4cccc(Br)c4)c3c2)cc1" . Its pIC50 was 5.27

Entry under test: "Oc1ccc(CNc2ccc3ncnc(Nc4cccc(Cl)c4)c3c2)cc1" . Its pIC50 was 5.82

Entry under test: "Brc1ccc(CNc2ccc3ncnc(Nc4cccc(Br)c4)c3c2)cc1" . Its pIC50 was 5.85

Entry under test: "Clc1cccc(Nc2ncnc3ccc(NCc4ccc(Br)cc4)cc23)c1" . Its pIC50 was 5.42

* * *

Test system: HepG2
Assay: Antiproliferative activity against human HepG2 cells after 48 hrs by MTT assay
Assay type: functional, cell-based
Conditions: HepG2, 48 h
Catalogue of pIC50 readings, one per entry.
// pIC50 is dimensionless: -log10 of concentration (M)

Oc1ccc(CNc2ccc3ncnc(Nc4cccc(Br)c4)c3c2)cc1 : 6.55
Clc1ccc(CNc2ccc3ncnc(Nc4cccc(Br)c4)c3c2)cc1 : 6.04

Item: "Oc1ccccc1CNc1ccc2ncnc(Nc3cccc(Cl)c3)c2c1" | System: HepG2 | pIC50: 5.68
